experimental.system: pseudo-kinase domain (JH2, amino-acids 536-812) of human Wild Type JAK2 (Homo sapiens, UniProt O60674, F794H/W659A/W777A)
Construct: pseudo-kinase domain (JH2, amino-acids 536-812 with 3 surface mutations W659A, W777A, F794H); His (C)
Sequence (O60674 536-812 W659A/W777A/F794H): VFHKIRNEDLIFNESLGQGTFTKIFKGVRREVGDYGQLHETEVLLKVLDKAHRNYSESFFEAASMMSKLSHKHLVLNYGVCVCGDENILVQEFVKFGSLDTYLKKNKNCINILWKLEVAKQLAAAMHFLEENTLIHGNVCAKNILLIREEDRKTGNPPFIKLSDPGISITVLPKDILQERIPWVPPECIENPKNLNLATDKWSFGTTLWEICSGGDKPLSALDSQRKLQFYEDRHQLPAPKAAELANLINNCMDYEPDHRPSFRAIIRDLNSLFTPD
test.method.notes: JAK2 LanthaScreen JH2-WT Binding Assay
protocol.conditions: JAK2 JH2-WT 0.145 nM, 50 nM tracer, 1 hour at 25° C.; read-out: JH2 BIND WT
Listing of entries alongside the reported IC50.

molecule	IC50
COC(=O)Nc1cc(Nc2cc3c(cn2)n(C)c(=O)n3C2[C@H]3CN(C(=O)OC)C[C@@H]23)cc(-c2cnn(C)c2)c1 (some centres unmarked)	100 to 500 nM
COC(=O)N[C@@H]1CC[C@@H](n2c(=O)n(C)c3cnc(Nc4ccn5nc(-c6cnn(C)c6)cc5n4)cc32)C1	10 to 100 nM
COC(=O)N[C@@H]1CC[C@@H](n2c(=O)n(C)c3cnc(Nc4ccc(F)c(-c5ccc(C(F)(F)F)nc5)n4)cc32)C1	≤ 10 nM
COC(=O)N[C@@H]1CC[C@@H](n2c(=O)n(C)c3cnc(Nc4ccc5cc(-c6cnn(C)c6)ccc5n4)cc32)C1	100 to 500 nM
COC(=O)N[C@@H]1CC[C@@H](n2c(=O)n(C)c3cnc(Nc4cc(NC(=O)OC5CC5)cc(OC)c4)cc32)C1	≤ 10 nM
[2H]C([2H])([2H])n1c(=O)n([C@@H]2CC[C@@H](NC(=O)OC)C2)c2cc(Nc3cc(C(=O)N4CCOCC4)c4cccc(C(C)(C)C#N)c4n3)ncc21	≤ 10 nM
C#CCOC(=O)N[C@@H]1CC[C@@H](n2c(=O)n(C)c3cnc(Nc4cc(NC(=O)OC5CCC5)cc(-c5cnn(C)c5)c4)cc32)C1	≤ 10 nM
COC(=O)N[C@@H]1CC[C@@H](n2c(=O)n(C)c3cnc(Nc4ccnc(N5CCC6(CC6)C5)n4)cc32)C1	≤ 10 nM
[2H]C([2H])([2H])n1c(=O)n([C@@H]2CC[C@@H](NC(=O)OC)C2)c2cc(Nc3cc(COC4CCC4)cc(-c4ccc5c(c4)OCCO5)n3)ncc21	≤ 10 nM
COC(=O)Nc1cc(Nc2cc3c(cn2)n(C)c(=O)n3C2CC3CC2CN3C(C)=O)cc(-c2cnn(C)c2)c1 (centres unmarked)	10 to 100 nM
[2H]C([2H])([2H])n1c(=O)n([C@H]2CC[C@@](C)(NC(=O)C3CC3)CC2)c2cc(Nc3ccc4nn(C)c(-c5cnn(C(F)(F)F)c5)c4n3)ncc21 (single isomer, unassigned)	≤ 10 nM

###

IC50 values by entry
experimental.system: catalytic domain (JH1, amino acids 808-1132) of human JAK2 (Homo sapiens, UniProt O60674)
Sequence (O60674 808-1132 limits assumed): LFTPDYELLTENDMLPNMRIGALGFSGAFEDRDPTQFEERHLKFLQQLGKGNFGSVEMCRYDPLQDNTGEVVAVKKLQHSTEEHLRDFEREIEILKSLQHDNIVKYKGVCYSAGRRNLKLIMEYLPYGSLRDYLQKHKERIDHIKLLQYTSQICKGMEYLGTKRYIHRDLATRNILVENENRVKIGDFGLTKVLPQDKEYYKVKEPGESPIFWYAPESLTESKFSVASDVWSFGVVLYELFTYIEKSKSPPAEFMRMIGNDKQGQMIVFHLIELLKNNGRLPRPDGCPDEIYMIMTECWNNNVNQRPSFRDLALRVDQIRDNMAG
test.method.notes: JAK2 HTRF Enzyme Activity Assay
protocol.conditions: ATP 30 µM, 60 minutes at 25° C.; read-out: V617F ENZ 30 UM

compound	IC50
COC(=O)Nc1cc(Nc2cc3c(cn2)n(C)c(=O)n3C2CC3(CC(NS(=O)(=O)C4CC4)C3)C2)cc(-c2cnn(C)c2)c1 (stereo not drawn)	> 1000 nM
[2H]C([2H])([2H])n1c(=O)n([C@H]2CC[C@@](C)(NC(=O)C3CC3)CC2)c2cc(Nc3ccc4c(n3)c(-c3cnn(C(F)(F)F)c3)nn4[C@H]3CC[C@H](O)CC3)ncc21	> 1000 nM
[2H]C([2H])([2H])n1c(=O)n(C23CCC(NC(C)=O)(CC2)CC3)c2cc(Nc3cc(C(C)(C)O)cc(-c4ncc(C(F)(F)F)s4)n3)ncc21	> 1000 nM

###

# reported pIC50; entries follow
experimental.system: catalytic domain (JH1, amino acids 808-1132) of human JAK2 (Homo sapiens)
test.method.notes: JAK2 HTRF Enzyme Activity Assay
protocol.conditions: ATP 30 µM, 60 minutes at 25° C.; read-out: V617F ENZ 30 UM
pIC50: −log10 of the molar value.

compound	experimental.system	pIC50
[2H]C([2H])([2H])n1c(=O)n([C@@H]2CC[C@@H](NC(=O)OC)C2)c2cc(Nc3ccnc(-c4ccnc(OC)c4)n3)ncc21	catalytic domain (JH1, amino acids 808-1132) of human JAK2 (Homo sapiens)	< 6.00
[2H]C([2H])([2H])n1c(=O)n([C@@H]2CC[C@@H](NC(=O)OC)C2)c2cc(Nc3cc(C(=O)N4CCOC5CC54)c4cccc(C(F)(F)F)c4n3)ncc21 (stereo partly drawn)	catalytic domain (JH1, amino acids 808-1132) of human JAK2 (Homo sapiens)	6.00 to 6.30
[2H]C1(NC(=O)OC)CC[C@@H](n2c(=O)n(C([2H])([2H])[2H])c3cnc(Nc4cc(C(C)(C)O)c5ccn(-c6cnn(C(F)(F)F)c6)c5n4)cc32)C1 (stereo partly drawn)	catalytic domain (JH1, amino acids 808-1132) of human JAK2 (Homo sapiens)	< 6.00
COC(=O)Nc1cc(Nc2cc3c(cn2)n(C)c(=O)n3[C@@H]2CC[C@@H](NC(=O)OC)C2)cc(C2CCN(C)CC2)c1	catalytic domain (JH1, amino acids 808-1132) of human JAK2 (Homo sapiens)	< 6.00
[2H]C([2H])([2H])n1c(=O)n([C@@H]2CC[C@](C)(NC(C)=O)C2)c2cc(Nc3cc(-c4cnccc4C(F)(F)F)c4nc(C)c(-c5cnn(C(F)F)c5)n4n3)ncc21	catalytic domain (JH1, amino acids 808-1132) of human JAK2 (Homo sapiens)	< 6.00
[2H]C([2H])([2H])n1c(=O)n([C@@H]2CC[C@@H](NC(=O)OC)C2)c2cc(Nc3ccc4c(n3)n(-c3cnn(C(F)F)c3)c(=O)n4CC3(C#N)CC3)ncc21	catalytic domain (JH1, amino acids 808-1132) of human JAK2 (Homo sapiens)	< 6.00

###

# Lookup of reported IC50 keyed by entry
experimental.system: catalytic domain (JH1, amino acids 826-1132) of human JAK2 (Homo sapiens)
Construct: catalytic domain (JH1, amino acids 826-1132) of human JAK2; FLAG (N); biotin (biotinylated)
test.method.notes: JAK2 LanthaScreen JH1 Binding Assay
protocol.conditions: JAK2 JH1 1.5 nM, 50 nM tracer, 2 hours at 25° C.; read-out: JH1 BIND

compound	IC50
COC(=O)N[C@@H]1CC[C@@H](n2c(=O)n(C)c3cnc(Nc4ccc(F)c(-c5ccc(OC(F)(F)F)cc5)n4)cc32)C1 [Example 73]	> 1000 nM
COC(=O)N[C@@H]1CC[C@@H](n2c(=O)n(C)c3cnc(Nc4cc(NC(=O)OC5CC5)cc(OC)c4)cc32)C1 [Example 55]	> 1000 nM
[2H]C([2H])([2H])n1c(=O)n([C@@H]2CC[C@@H](NC(=O)OC)C2)c2cc(Nc3cc(C(C)(C)O)cc(-c4ncc(C(O)(C(F)(F)F)C(F)(F)F)s4)n3)ncc21 [Example 145]	> 1000 nM
[2H]C([2H])([2H])n1c(=O)n([C@@H]2CC[C@@H](NC(=O)OC)C2)c2cc(Nc3cc(C(=O)N4CCOC5CC54)c4cccc(C(F)(F)F)c4n3)ncc21 (stereo partly drawn) [Example 13]	500 to 1000 nM
COC(=O)N[C@@H]1CC[C@@H](n2c(=O)n(C)c3cnc(Nc4cccc(-c5ccc6[nH]nc(C)c6c5)n4)cc32)C1 [Example 7]	> 1000 nM
COC(=O)N[C@@H]1CC[C@@H](n2c(=O)n(C)c3cnc(Nc4ccnc(N5CCCCC5)n4)cc32)C1 [Example 66]	> 1000 nM

###

IC50: recorded values
experimental.system: pseudo-kinase domain (JH2, amino-acids 536-812) of human V617F mutant JAK2 (Homo sapiens, UniProt O60674, F794H/V617F/W659A/W777A)
Construct: pseudo-kinase domain (JH2, amino-acids 536-812 with 3 surface mutations W659A, W777A, F794H); His (C)
Sequence (O60674 536-812 V617F/W659A/W777A/F794H): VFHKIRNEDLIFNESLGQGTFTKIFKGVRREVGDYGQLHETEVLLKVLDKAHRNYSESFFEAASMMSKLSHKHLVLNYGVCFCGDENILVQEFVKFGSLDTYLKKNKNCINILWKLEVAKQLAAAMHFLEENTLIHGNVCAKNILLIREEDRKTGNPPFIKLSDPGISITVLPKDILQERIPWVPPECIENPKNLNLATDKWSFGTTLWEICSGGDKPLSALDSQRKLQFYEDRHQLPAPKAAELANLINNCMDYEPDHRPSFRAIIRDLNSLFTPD
test.method.notes: JAK2 LanthaScreen JH2-V617F Binding Assay
protocol.conditions: JAK2 JH2-V617F 0.26 nM, 50 nM tracer, 1 hour at 25° C.; read-out: JH2 BIND V617F

compound	IC50
[2H]C([2H])([2H])n1c(=O)n([C@@H]2CC[C@](C)(NC(C)=O)C2)c2cc(Nc3cc(C(C)(C)O)cc(-c4cnc(OC(C)C)s4)n3)ncc21	≤ 10 nM
COC(=O)Nc1cc(Nc2cc3c(cn2)n(C)c(=O)n3[C@H]2C[C@H](C#N)C2)cc(-c2cnn(C)c2)c1	100 to 500 nM
[2H]C1(NC(=O)OC)CC[C@@H](n2c(=O)n(C([2H])([2H])[2H])c3cnc(Nc4ccc5c(n4)c(-c4cnn(C(F)(F)F)c4)nn5C4CCOCC4)cc32)C1 (stereo partly drawn)	≤ 10 nM
[2H]C([2H])([2H])n1c(=O)n([C@@H]2CC[C@@H](NC(=O)OC)C2)c2cc(Nc3cc(C(C)(C)O)c4cc(-c5cnn(C)c5)cc(C(F)(F)F)c4n3)ncc21	≤ 10 nM
[2H]C([2H])([2H])n1c(=O)n(C23CCC(NC(C)=O)(CC2)C3)c2cc(Nc3cc(C(C)(C)O)cc(-c4ncc(C(F)(F)F)s4)n3)ncc21	≤ 10 nM
[2H]C([2H])([2H])n1c(=O)n([C@@H]2CC[C@@H](NC(=O)OC)C2)c2cc(Nc3cc(C(=O)N4CC[C@@H](F)C4)cc(-c4ccc5c(c4)OCCO5)n3)ncc21	≤ 10 nM
